# measured_on: human GLP-1 receptor (human, UniProt P43220 24-463)
# assay_name: cell-based or functional assay
Bridge positions count the residues as written; N and C are the ends. Square brackets hold non-standard residues; d marks the D form. Ends that are not written are not given here. * marks the point of attachment. Acetyl(2-(4-imidazolyl)) = O=C(Cc1c[nH]cn1)*; Aib = CC(C)(N)C(=O)O
This listing pairs binders with measured In vitro activity compared with native peptide (%) vs GLP-1 (cAMP EC50).
test_readout: In vitro activity compared with native peptide (%) vs GLP-1 (cAMP EC50)

binder="[Acetyl(2-(4-imidazolyl))]GQGTFTSDYSIQLDEIAVRDFVEWLKNGGPSSGAPPPSHG [triple agonist of SEQ ID NO: 14]" value_observed=28
binder="Y[Aib]QGTFTSDCSKYLDERAAKDFVQWLLDHHPSSGQPPPS (bridge 16-20) [triple agonist of SEQ ID NO: 72]" value_observed=11.5
binder="[Acetyl(2-(4-imidazolyl))][Aib]QGTFTSDYSKYLDEKRQKEFVQWLLNTKC (bridge 16-20) [triple agonist of SEQ ID NO: 88]" value_observed=9.6
